conditions: buffer; pH 7.4; 6.0 h; 150.0 µM
Provide the reported solubility kinetic of each item.

# compound Cc1cc(C)nc(NC(=S)N2CCN(c3cccc([N+](=O)[O-])c3)CC2)c1 ; its solubility kinetic = 4.04 µg/mL

# compound O=C(O)c1c(Sc2ccccc2)c2cc(Cl)ccc2n1Cc1ccc(Cl)cc1 ; its solubility kinetic = > 63 µg/mL

# compound Cn1cc(S(=O)(=O)N2CCCCCC2)cc1C(=O)Nc1ccc(Cl)c(C(F)(F)F)c1 ; its solubility kinetic = < 1 µg/mL

# compound COc1ccc(-n2nc(C3CCCN(C(=O)C4CC4)C3)[nH]c2=O)cc1 (configuration not stated) ; its solubility kinetic = > 51 µg/mL

# compound FC(F)(F)c1cccc(N2CCN(C(=S)Nc3cc4ccccc4cn3)CC2)c1 ; its solubility kinetic = < 1 µg/mL

# compound Nc1ccc(-c2cccc3c(=O)cc(N4CCOCC4)oc23)cc1 ; its solubility kinetic = > 48 µg/mL

# compound NC(=O)C1CCN(c2ncc(-c3ccc4c(c3)OC(F)(F)O4)s2)CC1 ; its solubility kinetic = < 1 µg/mL

# compound CN(C)c1cccc(-c2nnc(N3CCC(C(N)=O)CC3)s2)c1 ; its solubility kinetic = > 49 µg/mL

# compound Cc1ccc(S(=O)(=O)Nc2ccccc2C(=O)Nc2nc(-c3ccccc3)cs2)cc1 ; its solubility kinetic = < 1 µg/mL

# compound Cc1cc(C)nc(NC(=S)N2CCN(c3cc(C(F)(F)F)nc4ccccc34)CC2)c1 ; its solubility kinetic = 19.7 µg/mL

# compound Cc1ccc(CCNC(=O)C2CCCN(C(=O)c3cc4sccc4n3C)C2)cc1 (configuration not stated) ; its solubility kinetic = 3.09 µg/mL

# compound CCNC(=O)c1coc(COc2ccc3c(c2)C(c2ccc(F)cc2)N(C(=O)CC(C)C)CC3)n1 (configuration not stated) ; its solubility kinetic = 3.8 µg/mL

# compound Cl.N=c1c2c(n(Cc3ccccc3)c3c1CCC3)CCC2 ; its solubility kinetic = > 39 µg/mL

# compound COc1cccc(CN2CCNc3cc(Nc4ccccc4)ncc3C2)c1 ; its solubility kinetic = 49.9 µg/mL

# compound Cc1cccc(NCc2ccc(O)c3ncccc23)c1 ; its solubility kinetic = < 1 µg/mL

# compound Cc1nc2c(-c3ccccc3)cnn2c(N)c1-c1ccccc1 ; its solubility kinetic = < 1 µg/mL

# compound CCOc1cc(CNc2ccc(O)cc2)ccc1OCc1ccc(Cl)cc1 ; its solubility kinetic = 4.36 µg/mL

# compound Cc1cccc(-c2noc([C@@H]3Cc4nc[nH]c4CN3)n2)c1 ; its solubility kinetic = 18.3 µg/mL

# compound Cc1cc(N[S+](=O)([O-])c2ccc(NC(=O)Cc3ccc(F)c(F)c3)cc2)no1 ; its solubility kinetic = > 60 µg/mL

# compound O=S(=O)(Nc1nccs1)c1ccc(NCc2cc(F)ccc2O)cc1 ; its solubility kinetic = > 56 µg/mL

# compound O=C(Nc1ncc([S+](=O)([O-])N2CCOCC2)s1)c1cccc(Br)c1 ; its solubility kinetic = 2.94 µg/mL

# compound Cc1ccc(-c2csc(CCn3nc(C)c4c(C(F)(F)F)cc(=O)[nH]c43)n2)cc1 ; its solubility kinetic = < 1 µg/mL

---

conditions: buffer; pH 7.4; 6.0 h; 150.0 µM
Recorded Metric: solubility kinetic

# compound CCOC(=O)C1=C(CN(CC)Cc2ccccc2)NC(=O)NC1c1ccc(OC(C)C)cc1 (stereo not given) ; its solubility kinetic = < 1 µg/mL

# compound CCc1ccc(NC(=O)c2[nH]c(C)c(C(C)=O)c2C)cc1S(=O)(=O)Nc1cccc(C#N)c1 ; its solubility kinetic = 1.67 µg/mL

# compound COc1cc([C@@H]2c3cc4c(cc3[C@H](O)[C@H]3COC(=O)[C@H]23)OCO4)cc(OC)c1OC ; its solubility kinetic = > 61 µg/mL

# compound Nc1cc2nc3ccccc3oc-2cc1=O ; its solubility kinetic = 17.9 µg/mL

# compound COc1ccc(OC)c(CN2CCNc3cc(Nc4ccccc4)ncc3C2)c1 ; its solubility kinetic = > 86 µg/mL

# compound Cc1ccc(S(=O)(=O)Nc2cc(Cl)c(Cl)cc2C(=O)Nc2nc(-c3ccccc3)cs2)cc1 ; its solubility kinetic = < 1 µg/mL

# compound Cc1nc2sccn2c(=O)c1S(=O)(=O)Nc1ccc(N2CCN(S(C)(=O)=O)CC2)cc1 ; its solubility kinetic = 6.85 µg/mL

# compound COc1ccc(-c2csc(NC(=O)c3ccncc3NS(=O)(=O)c3ccc(C)cc3)n2)cc1 ; its solubility kinetic = 54.8 µg/mL

# compound COc1ccc(CN2CCN(C(=O)c3cc4c(s3)CCC4)CC2)cc1 ; its solubility kinetic = > 53 µg/mL

# compound COc1ccc(CCn2c(N)cc(=O)[nH]c2=S)cc1OC ; its solubility kinetic = > 45 µg/mL

# compound Nc1ncnc(N2CCc3ccccc32)c1[N+](=O)[O-] ; its solubility kinetic = < 1 µg/mL

# compound COc1cc(Cl)ccc1C(=O)Nc1nc(-c2ccccc2)cs1 ; its solubility kinetic = < 1 µg/mL

# compound COc1cc(C(=O)Nc2nc(-c3ccccc3)cs2)ccc1NS(=O)(=O)c1ccc(C)cc1 ; its solubility kinetic = < 1 µg/mL

# compound NC(=O)C1CCN(c2nc(-c3ccc4c(c3)OCO4)cs2)CC1 ; its solubility kinetic = > 49 µg/mL

# compound c1cn2cc(-c3ccc4cn[nH]c4c3)nc(Nc3ccc(N4CCOCC4)cc3)c2n1 ; its solubility kinetic = < 1 µg/mL

# compound CC(=O)c1c(C)c(C(=O)Nc2cccc([S+](=O)([O-])N3CCCCCC3)c2)n(C)c1C ; its solubility kinetic = < 1 µg/mL

# compound COc1cc(/C=C(\C#N)c2nc3ccccc3[nH]2)ccc1OCc1ccc(F)cc1 ; its solubility kinetic = < 1 µg/mL

# compound COc1cc(O)c([C@H](CC(=O)N2CC(C)CC(C)C2)c2ccc3c(c2)OCO3)c(OC)c1 (stereo not given in full) ; its solubility kinetic = 2.51 µg/mL

# compound CN(C)c1cccc(-c2ncc(F)c(N3CCC(C(N)=O)CC3)n2)c1 ; its solubility kinetic = > 51 µg/mL

# compound Cc1ccc(-c2c(CN3CCN(c4cccc(C(F)(F)F)c4)CC3)csc2C)cc1 ; its solubility kinetic = < 1 µg/mL

# compound COc1ccc(-c2nc3ccc(C4=NNC(=O)CC4C)cc3[nH]2)cc1 (stereo not given) ; its solubility kinetic = < 1 µg/mL

# compound COc1ccc(NC(=O)c2cccnc2C)cc1S(=O)(=O)Nc1ccc(Br)cc1 ; its solubility kinetic = 26.4 µg/mL

# compound COCCN1CCNc2nc(COc3ccc(C(C)C)cc3)n(Cc3ccccc3)c2C1=O ; its solubility kinetic = < 1 µg/mL

# compound CCOC(=O)c1ccc(N2C(=O)c3n[nH]c(-c4ccco4)c3C2c2ccc(C)cc2)cc1 (stereo not given) ; its solubility kinetic = 1.45 µg/mL

# compound Cc1ccnc(N=C(N)N2CCN(c3cccc(C(F)(F)F)c3)CC2)c1 ; its solubility kinetic = 24.4 µg/mL

# compound CC(=O)N1CCN(c2ccc(OCc3nn(C)c(C)c3-c3cccc4c(CCCOc5cc(C)c(Cl)c(C)c5)c(C(=O)O)n(Cc5cccnc5)c34)cc2)CC1 ; its solubility kinetic = > 100 µg/mL

# compound O=C(Nc1ccccc1-c1cn2c(CN3CCNCC3)csc2n1)c1cnc2ccccc2n1 ; its solubility kinetic = 4.56 µg/mL

# compound O=[S+]([O-])(Nc1cnc2ccccc2c1)c1ccc(NCc2ccc(Cl)cc2O)cc1 ; its solubility kinetic = < 1 µg/mL

# compound CN1C(=O)c2ccccc2[S@](=O)c2ccc(C(=O)NCCN3CCCC3)cc21 ; its solubility kinetic = > 59 µg/mL

# compound CC(C)Oc1cccc(-c2csc(N3CCC(C(N)=O)CC3)n2)c1 ; its solubility kinetic = 41.7 µg/mL

# compound CC(C)c1ccccc1-c1nc(NCc2ccc(-c3cccnc3)cc2)c2ccccc2n1 ; its solubility kinetic = < 1 µg/mL

# compound CC(C)CC(C)NC(=O)c1noc(-c2ccc[nH]c2=O)n1 (stereo not given) ; its solubility kinetic = > 43 µg/mL

# compound FC(F)(F)c1cc(-c2ccc(CNc3nc(-c4ccccc4C(F)(F)F)nc4ccsc34)cc2)ccn1 ; its solubility kinetic = < 1 µg/mL

# compound CCOC(=O)Nc1cc(-c2ccc(C)c(NS(C)(=O)=O)c2)nn2c(C)nnc12 ; its solubility kinetic = 33.6 µg/mL

# compound CCOC(=O)c1ccc(-n2cnc3cc(C(=O)N4CCCCC4)ccc32)cc1 ; its solubility kinetic = > 56 µg/mL

# compound CCCCN(C)C(=O)c1c(C)sc2ccn(CCC)c(=O)c12 ; its solubility kinetic = > 32 µg/mL

# compound CCOc1ccc(NC(=O)c2nc(S(=O)(=O)Cc3ccccc3F)ncc2Cl)cc1 ; its solubility kinetic = < 1 µg/mL

# compound O=c1ncn2nc(Sc3ccc(F)cc3F)ccc2c1-c1c(Cl)cccc1Cl ; its solubility kinetic = > 100 µg/mL

# compound Clc1ccc(Nc2nc(-c3ccncc3)nc3ccccc23)cc1Cl ; its solubility kinetic = < 1 µg/mL

# compound Cc1ccc(S(=O)(=O)Nc2cnccc2C(=O)Nc2nc(-c3ccc(Cl)c(Cl)c3)cs2)cc1 ; its solubility kinetic = 0.578 µg/mL
